Measured Binding Activity [%], listed per entry for reference.
# target-of-assay: T1, Rat Semaphorin3A-Sema Domain, TPP-19120 (rat, UniProt Q63548 21-569)
# T1 construct: produced inhouse
# T1 sequence: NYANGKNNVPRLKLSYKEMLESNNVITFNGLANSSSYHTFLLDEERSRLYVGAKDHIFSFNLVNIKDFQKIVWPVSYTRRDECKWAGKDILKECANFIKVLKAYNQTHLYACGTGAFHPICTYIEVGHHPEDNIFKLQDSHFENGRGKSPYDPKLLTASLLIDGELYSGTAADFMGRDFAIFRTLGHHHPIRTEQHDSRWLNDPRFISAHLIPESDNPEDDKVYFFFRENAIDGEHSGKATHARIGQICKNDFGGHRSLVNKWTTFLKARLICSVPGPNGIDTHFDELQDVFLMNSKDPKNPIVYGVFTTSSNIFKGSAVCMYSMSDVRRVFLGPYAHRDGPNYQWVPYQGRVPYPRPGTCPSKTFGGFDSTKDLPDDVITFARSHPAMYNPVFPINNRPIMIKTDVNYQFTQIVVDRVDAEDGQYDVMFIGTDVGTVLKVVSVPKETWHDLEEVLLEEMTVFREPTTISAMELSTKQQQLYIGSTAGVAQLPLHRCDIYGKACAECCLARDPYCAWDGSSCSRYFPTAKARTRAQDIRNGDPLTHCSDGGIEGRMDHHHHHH
# protocol-description: SPR, captured antibody, Sema3A domain analyte
# Method: To assess the binding activity of anti-Sema3A antibodies binding assays were conducted using surface plasmon resonance (SPR). […] To calculate the binding activity first the theoretical RMax needs to be calculated according to equation 1: […] Binding activity was determined by dividing the experimental determined RMax by the theoretical calculated RMax according to equation 2: […]
Just the number please, in %, no unit attached.

Recorded Binding Activity [%], per entry:
• TPP-17755 (antibody, human IgG1, lambda, V domains shown, also called Samsung; Samsung Prior Art F11) VH: EVQLLESGGGLVQTGGSLRLSCAASGFTFSDYAMSWVRQAPGKGLEWVSWIYYDSGSKYYADSVKGRFTISRDNSKNTLYLQMNSLRAEDTAVYYCAKLNGDFDYWGQGTLVTVSS VL: QSVLTQPPSASGTPGQRVTISCSGSSSNIGNNDVSWYQQLPGTAPKLLIYADSHRPSGVPDRFSGSKSGTSASLAISGLRSEDEADYYCGAWDSSLSGYVFGGGTKLTVLG = 56
• TPP-30791 (antibody, human IgG1, kappa, V domains shown, prior art, WO 2020/225400; also called BI clone IV; Böhringer (BI) Clone IV) VH: EVQLVESGGGLLQLGGSLRLSCAASGFTFSSYYMSWVRQAPGKGLEWVSTIIKSGGYAYYPDSVKDRFTISRDNSKNTLNLQMNSLRAEDTAVYYCVKGGQGAMDYWGQGTTVTVSS VL: EIVLTQSPATLSLSPGERATLSCRASQSIGDYLHWYQQKPGQAPRLLIKYASQSISGIPARFSGSGSGTDFTLTISSLEPEDFAVYYCQQGYSFPYTFGGGTKLEIKR = 109
• TPP-30788 (antibody, human IgG1, kappa, V domains shown, prior art, WO 2020/225400; also called BI clone I; Böhringer (BI) Clone I) VH: EVQLVESGGGLVQPGGSLRLSCAASGFTFSSYYMSWVRQAPGKGLEWVSTIIKSGGYAYYPDSVKDRFTISRDNSKNTLYLQMSSLRAEDTAVYYCVRGGQGAMDYWGQGTTVTVSS VL: EIVLTQSPATLSLSPGERATLSCRASQSIGDYLHWYQQKPGQAPRLLIKYASQSISGIPARFSGSGSGTDFTLTITSLEPEDFAVYYCQQGYSFPYTFGGGTKLEIKR = 109

Turning now to a further record.
Q: For TPP-30790 (antibody, human IgG1, kappa, V domains shown, prior art, WO 2020/225400; also called BI clone III; Böhringer (BI) Clone III) VH: EVQLVESGGGLVQLGGSLRLSCAASGFTFSSYYMSWVRQAPGKGLEWVSTIIKSGGYAYYPDSVKDRFTISRDNSKNTLYLQMNSLRAEDTAVYYCVKGGQGAMDYWGQGTTVTVSS VL: EIVLTQSPATLSLSPGERATLSCRASQSIGDYLHWYQQKPGQAPRLLIYYASQSISGIPARFSGSGSGTDFTLTISSLEPEDFAVYYCQQGYSFPYTFGGGTKLEIKR , what is its reported Binding Activity [%]?
Result: 94
